Assay: Antiradical activity assessed as DPPH radical scavenging activity
Type: physicochemical
readout kind: IC50
Units required after the number.

| chem smiles | IC50 |
| --- | --- |
| O=C(O)Cc1c(O)cc(O)cc1OC(=O)c1ccc(O)c(O)c1 | 61.8 µM |

Here is the next item to consider.
Prompt line: // IC50 lookup, key: `COC(=O)Cc1c(O)cc(O)cc1OC(=O)c1ccc(O)c(O)c1`
Response line: 51.4 µM

---

System: SW480
Test: Cytotoxicity against human SW480 cells after 72 hrs
Type: functional, cell-based
Conditions: SW480, 72 h
readout kind: IC50

| chem smiles | target or test system | IC50 |
| --- | --- | --- |
| OC[C@H]1O[C@@H](Oc2cc3c(O)cc(O)cc3[o+]c2-c2cc(O)c(O)c(O)c2)[C@H](O)[C@@H](O)[C@@H]1O | SW480 | 20 µM |

Prompt line: // IC50 lookup, key: `OC[C@H]1O[C@@H](Oc2cc3c(O)cc(O)cc3[o+]c2-c2ccc(O)c(O)c2)[C@H](O)[C@@H](O)[C@@H]1O`
Response line: 100 µM
